METHOD NOTES: Stability of compound in human skin homogenate assessed as dermal protease mediated stability by measuring compound remaining measured after 24 hrs by HPLC-MS/MS analysis
Type: ADME, tissue-based, Skin of body
MEASUREMENT CONDITIONS: read-out: Stability
Peptide text beside a SMILES is read from it. * marks the point of attachment. Palmitoyl = CCCCCCCCCCCCCCCC(=O)*
PROPERTY MEASURED: remaining at 24 h (%)

a. CCCCCCCCCCCCCCCC(=O)N[C@@H](CCCCN)C(=O)N[C@H](C(=O)N[C@H](C(=O)N[C@@H](CCCCN)C(=O)N[C@@H](CO)C(=O)O)[C@@H](C)O)[C@@H](C)O (Palmitoyl-KTTKS-OH)
b. CC(=O)N[C@H](CC(N)=O)C(=O)N[C@@H](C(=O)N[C@@H](C(=O)N[C@H](CCCCN)C(N)=O)C(C)C)C(C)C
Between these two entries, a and b , state which has the higher remaining at 24 h. In your reply, give the label of the chosen option. b

The reported numbers originate from ChEMBL document CHEMBL5518222.
